Value source: patent US20200095340A1

pKd values, listed per item
# tgt: biotinylated human DLL3 protein expressed as a human IgG1 fusion protein (human) (UniProt Q9NYJ7)
# Sequence (Q9NYJ7 27-492): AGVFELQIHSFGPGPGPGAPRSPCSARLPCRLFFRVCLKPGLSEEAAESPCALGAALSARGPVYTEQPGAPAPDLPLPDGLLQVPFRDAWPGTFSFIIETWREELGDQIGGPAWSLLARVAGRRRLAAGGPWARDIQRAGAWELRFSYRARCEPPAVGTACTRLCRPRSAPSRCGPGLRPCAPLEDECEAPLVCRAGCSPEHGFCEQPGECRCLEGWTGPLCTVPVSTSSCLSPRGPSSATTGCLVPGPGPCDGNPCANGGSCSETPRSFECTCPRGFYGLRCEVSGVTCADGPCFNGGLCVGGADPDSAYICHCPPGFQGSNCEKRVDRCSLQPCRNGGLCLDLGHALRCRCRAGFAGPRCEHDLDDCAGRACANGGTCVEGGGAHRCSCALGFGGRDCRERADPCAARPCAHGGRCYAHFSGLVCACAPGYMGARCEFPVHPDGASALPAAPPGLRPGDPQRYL
# assay.procedure: Octet, biotinylated human DLL3-IgG1 fusion on streptavidin tips, single 50 nM, conditioned medium (relative KD)
// pKd: -log10(molar conc.)

Data request: Please report the recorded pKd for anti-DLL3 trispecific protein, DLL3 binder 3E03 (protein, part only; not given: CD3 binder and albumin binder, part only) chain, part: EVQLVESGGGLVQPGGSLTLSCAASGSSVRFLSMAWYRQAPGKKRELVAGISGDGSTDYIDSVKGRFTISRDNAKNSVYLQMNSLRAEDTAVYYCYAYRWMTRYTYWGQGTLVTVSSGGGGSGGGSGGGGSGGGSHHHHHH .
Data returned: 7.70

Data request: Please report the recorded pKd for anti-DLL3 trispecific protein, DLL3 binder 3C011 (protein, part only; not given: anti-CD3 fragment and anti-albumin domain, part only) chain, part: EVQLVESGGGLVQPGGSLTLSCAASGSSVRFLSMAWYRQAPGKKRELVAGISAHGSTDYIDSVKGRFTISRDNAKNSVYLQMNSLRAEDTAVYYCYAYRWRTRYTYWGQGTLVTVSSGGGGSGGGSGGGGSGGGSHHHHHH .
Data returned: 7.85

Data request: Please report the recorded pKd for anti-DLL3 trispecific protein, DLL3 binder 2B010 (protein, part only; not given: CD3 fragment and albumin sdAb, part only) chain, part: EVQLVESGGGLVQPGGSLTLSCVASGSTSSRNAMGWYRRAPGKQRELVAGISSDGSKLYLDSVKGRFTISRDNAKNSVYLQMNSLRAEDTAVYYCYYFRTVLGSSMRYWGQGTLVTVSSGGGGSGGGSGGGGSGGGSHHHHHH .
Data returned: 8.00

Consider now this further binder.
Data request: Please report the recorded pKd for anti-DLL3 trispecific protein, DLL3 binder 3B04 (protein, part only; not given: CD3 binder and albumin binder, part only) chain, part: EVQLVESGGGLVQPGGSLTLSCAASGSNVSFLSMAWYRQAPGKKRELVAGISARGSTDYIDSVKGRFTISRDNAKNSVYLQMNSLRAEDTAVYYCYAYHWTTRYTYWGQGTLVTVSSGGGGSGGGSGGGGSGGGSHHHHHH .
Data returned: 7.62
